system: RAW-Dual; assay: NF-kB SEAP reporter activity, fold change vs agonist alone; cytotoxicity flag (confluency mask): not cytotoxic; higher = enhanced NF-kB activity; details: agonist: LPS (TLR4) 0.1 ug/mL
Over roughly 2,900 compounds, “NF-kB SEAP reporter activity, fold change vs agonist alone” has its median near 0.99; the highest 2% begin near 2.6. This is one part of a sample in which the highest values are shown more often than they occur.

molecule: CC1OC(OC2C(=O)c3c(O)cc(O)cc3OC2c2ccc(O)cc2)C(O)C(O)C1O (stereo unspecified) (library stock concentration (final ~1000-fold dilution): 10 mM)
NF-kB SEAP reporter activity: 1.09

molecule: CCOC(=O)C1=CCCCC1S(=O)(=O)Nc1ccc(F)cc1Cl (stereo unspecified) (library stock concentration (final ~1000-fold dilution): .1 mM)
NF-kB SEAP reporter activity: 0.288

molecule: Cl.O=C1c2cccc3c2C(CCC3)CN1C1CN2CCC1CC2 (stereo unspecified) (library stock concentration (final ~1000-fold dilution): 10 mM water)
NF-kB SEAP reporter activity: 0.985

molecule: CC(=O)C(=O)Oc1ccccc1C(=O)O (library stock concentration (final ~1000-fold dilution): 10 mM)
NF-kB SEAP reporter activity: 1.07

molecule: CN1CCCC1CCOC(C)(c1ccccc1)c1ccc(Cl)cc1.O=C(O)/C=C/C(=O)O (stereo unspecified) (library stock concentration (final ~1000-fold dilution): 10 mM)
NF-kB SEAP reporter activity: 1.32

molecule: CC1OC(OC2C(Oc3cc(O)c(C(=O)CCc4ccc(O)cc4)c(O)c3)OC(CO)C(O)C2O)C(O)C(O)C1O (stereo unspecified) (library stock concentration (final ~1000-fold dilution): 10 mM)
NF-kB SEAP reporter activity: 0.867

molecule: CCCCOc1nc(N)c2c(n1)N(Cc1cccc(CN3CCCC3)c1)CC(=O)N2 (library stock concentration (final ~1000-fold dilution): 1 mM)
NF-kB SEAP reporter activity: 2.53

molecule: C=CC(=O)Nc1cccc(C)c1Nc1ncc2cc(-c3c(Cl)c(OC)cc(OC)c3Cl)ccc2n1 (library stock concentration (final ~1000-fold dilution): 2 mM)
NF-kB SEAP reporter activity: 1.04

molecule: O=c1cc(-c2ccc(O)cc2)oc2c(C3OC(CO)C(O)C(O)C3O)c(O)cc(O)c12 (stereo unspecified) (library stock concentration (final ~1000-fold dilution): 10 mM)
NF-kB SEAP reporter activity: 0.978

molecule: COc1ccc(/C=C\c2cc(OC)c(OC)c(OC)c2)cc1O (library stock concentration (final ~1000-fold dilution): 10 mM)
NF-kB SEAP reporter activity: 4.68

molecule: C=CC(=O)N1CCN(CCCn2c(=O)c(-c3c(Cl)c(OC)cc(OC)c3Cl)cc3cnc(NC)nc32)CC1 (library stock concentration (final ~1000-fold dilution): 10 mM)
NF-kB SEAP reporter activity: 3.2

====

The reader will find reported NF-kB SEAP reporter activity values listed item by item below.
test system: RAW-Dual; experiment: NF-kB SEAP reporter activity, fold change vs agonist alone; higher = enhanced NF-kB activity; conditions: library stock concentration (final ~1000-fold dilution): 10 mM; cytotoxicity flag (confluency mask): not cytotoxic; agonist: MPLA (TLR4) […]
Over roughly 2,900 compounds, “NF-kB SEAP reporter activity, fold change vs agonist alone” has its median near 0.99; the highest 2% begin near 2.6. What follows is part of a selection rich in the highest values, with near analogues and random picks from the rest.

molecule: Cl.NC12CC3CC(CC(C3)C1)C2
NF-kB SEAP reporter activity: 1.08

molecule: CC1CCOC2Cn3cc(C(=O)NCc4ccc(F)cc4F)c(=O)c(O)c3C(=O)N12 (stereo not drawn)
NF-kB SEAP reporter activity: 0.999

molecule: O=C1CCC(N2C(=O)c3ccccc3C2=O)C(=O)N1 (stereo not drawn)
NF-kB SEAP reporter activity: 0.792

molecule: COc1c(O)c(C)cc2c1C(=O)c1c(O)cccc1C2=O
NF-kB SEAP reporter activity: 1.08

molecule: COc1cc(OC)c(C=CS(=O)(=O)Cc2ccc(OC)c(NCC(=O)O)c2)c(OC)c1
NF-kB SEAP reporter activity: 2.27

molecule: CCCCCCCCCC(=O)NC(Cc1c[nH]c2ccccc12)C(=O)NC(CC(N)=O)C(=O)NC(CC(=O)O)C(=O)NC1C(=O)NCC(=O)NC(CCCN)C(=O)NC(CC(=O)O)C(=O)NC(C)C(=O)NC(CC(=O)O)C(=O)NCC(=O)NC(CO)C(=O)NC(C(C)CC(=O)O)C(=O)NC(CC(=O)c2ccccc2N)C(=O)OC1C (stereo not drawn)
NF-kB SEAP reporter activity: 0.855

molecule: CC(C)(C)c1ccc(Cn2nc(-c3ccc(Cl)cc3)cc2C(=O)NO)cc1
NF-kB SEAP reporter activity: 1.5

molecule: CCOc1cc(N)c([N+](=O)[O-])cc1C(=O)NC1CCN(CC2CC=CCC2)CC1.O=C(O)C(O)C(O)C(=O)O (stereo not drawn)
NF-kB SEAP reporter activity: 1.03
